// provenance: patent US20240316051A1

Target: EED (1-441)-His protein (Homo sapiens)
Construct: 20 nM EED (1-441)-His protein
Sequence (O75530 whole entry): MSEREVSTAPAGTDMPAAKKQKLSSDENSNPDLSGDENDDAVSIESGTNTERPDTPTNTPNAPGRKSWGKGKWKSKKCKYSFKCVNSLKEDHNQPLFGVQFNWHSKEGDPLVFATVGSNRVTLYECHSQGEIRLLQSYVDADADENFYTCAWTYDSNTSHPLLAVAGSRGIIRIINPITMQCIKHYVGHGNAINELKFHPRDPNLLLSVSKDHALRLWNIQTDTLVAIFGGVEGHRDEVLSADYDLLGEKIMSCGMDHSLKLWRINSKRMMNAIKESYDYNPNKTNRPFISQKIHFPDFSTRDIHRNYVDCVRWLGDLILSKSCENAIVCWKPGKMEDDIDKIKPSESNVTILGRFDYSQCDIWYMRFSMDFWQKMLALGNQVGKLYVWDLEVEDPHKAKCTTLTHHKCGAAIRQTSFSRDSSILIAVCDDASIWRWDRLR
Assay: EED-H3K27Me3 peptide competition binding assay by AlphaScreen
Settings: Table 4A, read-out: Alpha screen
endpoint-label: pIC50
pIC50 field: float, defined as -log10 of concentration (mol/L).

• CN1CCC(N2Cc3cc(F)ccc3-c3cnc(NCc4c(F)ccc5c4CCO5)n4cnc(c34)C2=O)CC1 = 8.76

Query: Record request: pIC50 value, item `O=C1NCc2cc(C(F)(F)F)ncc2-c2cnc(NCc3c(F)ccc4c3CCO4)n3cnc1c23`
Reply: 9.17

Query: Which pIC50 value is on record for `O=C1OCc2cnc(C(F)(F)F)cc2-c2cnc(NCc3c(F)ccc4c3CCO4)n3cnc1c23` ?
Reply: 8.74

Query: Give the measured pIC50 of `O=C1OCc2c(F)cccc2-c2cnc(NCc3c(F)ccc4c3CCO4)n3cnc1c23` .
Reply: 9.12

Query: Reported pIC50, molecule `CC(C)N1Cc2nc(C(F)(F)F)ccc2-c2cnc(NCc3c(F)ccc4c3CCO4)n3cnc(c23)C1=O` : ____
Reply: 8.67

Query: Consider the molecule shown here: `CC(C)(F)CN1Cc2cc(F)ccc2-c2cnc(NCc3c(F)ccc4c3CCO4)n3cnc(c23)C1=O` What is its recorded pIC50?
Reply: 8.49

Query: For the molecule `CC(F)(F)CN1Cc2cc(C(F)(F)F)ncc2-c2cnc(NCc3c(F)ccc4c3CCO4)n3cnc(c23)C1=O` , what pIC50 is on record?
Reply: 7.98

Query: Fill in the blank: the reported pIC50 of `O=C1OCc2cc(C(F)(F)F)ccc2-c2cnc(NCc3cccc4c3OCO4)n3cnc1c23` is ____.
Reply: 8.23

Query: May I ask what pIC50 has been recorded for `O=C1c2ncn3c(NCc4c(F)ccc5c4CCO5)ncc(c23)-c2ccc(C(F)(F)F)nc2CN1CC1(O)CC1` ?
Reply: 8.87

Query: Give the measured pIC50 of `Cn1cc2c(n1)COC(=O)c1ncn3c(NCc4c(F)ccc5c4CCO5)ncc-2c13` .
Reply: 9.02

Query: Can you share its pIC50? I mean this molecule: `CS(=O)(=O)c1ccc2c(c1)NC(=O)c1ncn3c(NCc4c(F)ccc5c4CCO5)ncc-2c13`
Reply: 9.59

Query: Item `O=C1c2ncn3c(NCc4c(F)ccc5c4CCO5)ncc(c23)-c2ccc(C(F)(F)F)nc2CN1C1CC1` has what recorded pIC50?
Reply: 9.22

Query: Consider the molecule `O=C1c2ncn3c(NCc4c(F)ccc5c4CCO5)ncc(c23)-c2cnc(C(F)(F)F)cc2CN1CCF` and give its measured pIC50.
Reply: 8.57

Query: Looking for the measured pIC50 of `O=C1c2ncn3c(NCc4c(F)ccc5c4CCO5)ncc(c23)-c2ccc(F)cc2CN1CC(F)F` , can you help?
Reply: 8.79

Query: // pIC50 lookup, key: `O=C1OCc2cc(C(F)(F)F)ccc2-c2cnc(NCc3c(F)ccc4c3CCO4)n3cnc1c23`
Reply: 8.71

Query: Bench note: what pIC50 did `O=C1NCc2cc(F)ccc2-c2cnc(NCc3c(F)ccc4c3CCO4)n3cnc1c23` show?
Reply: 9.18

Query: Please report the recorded pIC50 for `O=C1c2ncn3c(NCc4c(F)ccc5c4CCO5)ncc(c23)-c2cnc(C(F)(F)F)cc2CN1CC1(O)CC1` .
Reply: 8.98

Query: Which pIC50 value belongs to `O=C1c2ncn3c(NCc4c(F)ccc5c4CCO5)ncc(c23)-c2cnc(C(F)(F)F)cc2CN1C1CC1` ?
Reply: 8.84

Query: For `O=C1NCc2ccc(C(F)(F)F)cc2-c2cnc(NCc3c(F)ccc4c3CCO4)n3cnc1c23` , what is its reported pIC50?
Reply: 8.01

Query: Sample `CN1CCC(CN2Cc3nc(C(F)(F)F)ccc3-c3cnc(NCc4c(F)ccc5c4CCO5)n4cnc(c34)C2=O)CC1` — what was its pIC50?
Reply: 9.08

Query: GET /values?readout=pIC50&item= `O=C1c2ncn3c(NCc4c(F)ccc5c4CCO5)ncc(c23)-c2cnc(C(F)(F)F)cc2CN1CC1CCOCC1`
Reply: 8.47

Query: Item under review: `O=C1OCc2cc(F)ccc2-c2cnc(NCc3c(F)ccc4c3CCO4)n3cnc1c23` . Reported pIC50?
Reply: 9.21

Query: What value of measured pIC50 is listed for `O=S1(=O)Cc2ncccc2-c2cnc(NCc3c(F)ccc4c3CCO4)n3cnc1c23` ?
Reply: 7.85
